Reported values of TGI for individual entries
# Tested on: NCI/ADR-RES ovarian
# MEASUREMENT NOTES: NCI tumour cell line growth inhibition, 48 h

Examples with answers:
{"COMPOUND": "COc1cc2c(c(O)c1OC)CC1CCC(=O)N1C2c1cccc2ccccc12 (stereo not drawn)", "TGI": "53.7 µM"}
{"COMPOUND": "CC(=O)Nc1c(S(=O)(=O)c2ccccc2)c(C)c(C)n1Cc1ccccc1", "TGI": "> 100 µM"}
{"COMPOUND": "O=C(Nc1ccccc1)Nc1ccc2cc3ccc(NC(=O)Nc4ccccc4)cc3nc2c1", "TGI": "> 100 µM"}
{"COMPOUND": "Cc1c(N=Nc2ccccc2)c(C)n(C2OC(CO)C(O)C(O)C2O)c(=S)c1C#N (stereo not drawn)", "TGI": "> 100 µM"}
{"COMPOUND": "CC(C)(C)c1cc(OCc2nn3c(Cc4ccccc4)nnc3s2)c(Cl)cc1OCc1nn2c(Cc3ccccc3)nnc2s1", "TGI": "> 100 µM"}
{"COMPOUND": "CC(O)(P(=O)(O)O)P(=O)(O)OCC(O)CN1CCOCC1 (stereo not drawn)", "TGI": "> 100 µM"}

input: What TGI value was documented for this compound, COc1ccc2c(c1OC)CO[C@@H]2[C@H]1c2c(cc3c(c2OC)OCO3)CCN1S(=O)(=O)c1cn(C)cn1 ?
output: 8.35 µM

input: What TGI value was documented for this compound, O=C(Nc1cccc([N+](=O)[O-])c1)c1n[nH]n(-c2cccc([N+](=O)[O-])c2)c1=O ?
output: > 100 µM
